- STUDY TARGET: Bifunctional dihydrofolate reductase-thymidylate synthase (Plasmodium falciparum K1) (UniProt P13922)
- Sequence (P13922 whole entry, looked up): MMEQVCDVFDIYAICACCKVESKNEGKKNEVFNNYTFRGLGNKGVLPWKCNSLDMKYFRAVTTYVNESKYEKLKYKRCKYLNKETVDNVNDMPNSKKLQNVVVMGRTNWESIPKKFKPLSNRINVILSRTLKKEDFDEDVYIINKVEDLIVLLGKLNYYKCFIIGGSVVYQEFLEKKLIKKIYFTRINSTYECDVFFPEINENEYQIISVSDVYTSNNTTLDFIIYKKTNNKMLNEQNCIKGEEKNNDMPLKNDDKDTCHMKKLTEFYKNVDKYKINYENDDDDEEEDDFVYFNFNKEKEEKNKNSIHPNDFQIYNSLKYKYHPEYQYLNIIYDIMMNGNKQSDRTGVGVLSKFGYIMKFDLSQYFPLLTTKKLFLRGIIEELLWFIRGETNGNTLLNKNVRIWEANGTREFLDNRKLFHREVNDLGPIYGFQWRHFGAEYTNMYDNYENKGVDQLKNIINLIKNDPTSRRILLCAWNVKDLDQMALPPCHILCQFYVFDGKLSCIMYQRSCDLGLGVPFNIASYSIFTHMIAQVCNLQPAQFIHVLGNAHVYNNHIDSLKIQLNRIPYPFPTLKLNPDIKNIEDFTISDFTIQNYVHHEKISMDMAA
- MEASUREMENT NOTES: Selectivity ratio of growth inhibition against Plasmodium falciparum TM4/8.2(wild-type) and T9/94(mutant)
- Type: functional
Label key: satisfied means IC50 ratio under 1; not satisfied means IC50 ratio of 1 or more.

Prompt: Please indicate whether the reported IC50 ratio of CC1(C)N=C(N)N=C(N)N1c1ccc(Br)cc1 is strictly below 1.
Completion: not satisfied

Prompt: Hello, I'm reviewing records and need to know if IC50 ratio of CC1(C)N=C(N)N=C(N)N1c1ccccc1 is below 1. Could you check?
Completion: satisfied

Prompt: Hello, is IC50 ratio of the following molecule strictly smaller than 1? CCC1N=C(N)N=C(N)N1c1ccc(Br)cc1 (configuration not stated)
Completion: not satisfied

Prompt: Please indicate whether the reported IC50 ratio of CC(C)C1N=C(N)N=C(N)N1c1ccc(Br)cc1 (configuration not stated) is strictly below 1.
Completion: not satisfied

Prompt: Problem: For the molecule CCCC1N=C(N)N=C(N)N1c1ccc(Br)cc1 (configuration not stated) , is IC50 ratio under 1?
Completion: not satisfied

Prompt: Please let me know if CCC1N=C(N)N=C(N)N1c1ccc(C)cc1 (configuration not stated) shows IC50 ratio below 1.
Completion: not satisfied

Prompt: State whether 1 exceeds IC50 ratio recorded for CC1N=C(N)N=C(N)N1c1ccc(Cl)c(Cl)c1 (configuration not stated) .
Completion: satisfied

Prompt: Problem: For the molecule NC1=NC(c2ccccc2)N(c2cccc(Cl)c2)C(N)=N1 (configuration not stated) , is IC50 ratio under 1?
Completion: satisfied

Prompt: hey, is IC50 ratio for CCCC1N=C(N)N=C(N)N1c1ccc(Cl)cc1 (configuration not stated) lower than 1 or not?
Completion: not satisfied

Prompt: Report whether reported IC50 ratio is lower than 1 (strictly) for CC1(C)N=C(N)N=C(N)N1c1ccc(Cl)cc1 [CYCLOGUANIL]
Completion: not satisfied

Prompt: Criterion: IC50 ratio strictly below 1. Is it met by NC1=NCN(c2ccc(Cl)cc2)C(N)=N1 ?
Completion: satisfied

Prompt: Find out if reported IC50 ratio for CCCC1N=C(N)N=C(N)N1c1ccc(C)cc1 (configuration not stated) is less than 1
Completion: satisfied

Prompt: Problem: For the molecule CC1(C)N=C(N)N=C(N)N1c1ccc(Cl)c(Cl)c1 [CHLORCYCLOGUANIL] , is IC50 ratio under 1?
Completion: not satisfied

Prompt: hey, is IC50 ratio for NC1=NCN(c2ccc(F)cc2)C(N)=N1 lower than 1 or not?
Completion: satisfied

Prompt: Would you kindly verify if IC50 ratio of Cc1ccc(N2C(N)=NC(N)=NC2c2ccccc2)cc1 (configuration not stated) is strictly less than 1?
Completion: satisfied

Prompt: # TODO verify IC50 ratio < 1 strictly for this molecule: CC(C)C1N=C(N)N=C(N)N1c1ccc(Cl)cc1 (configuration not stated)
Completion: satisfied

====

- STUDY TARGET: Bifunctional dihydrofolate reductase-thymidylate synthase (Plasmodium falciparum K1, UniProt P13922, A16V/S108T)
- MEASUREMENT NOTES: Inhibition constant (Ki mut) against A16V+S108T Mutant DHFRs of Plasmodium falciparum
READOUT LABEL: Ki (nM)
Write down the numeric answer in nM and omit the unit.

Ki in this record for NC1=NCN(c2ccc(F)cc2)C(N)=N1 : 469

Recorded Ki (compound CC1(C)N=C(N)N=C(N)N1c1ccc(Cl)cc1 [CYCLOGUANIL] ): 1310

Recorded result, CCC1N=C(N)N=C(N)N1c1ccc(C)cc1 (configuration not stated) , Ki: 128

Entry CC(C)C1N=C(N)N=C(N)N1c1ccc(Br)cc1 (configuration not stated) — recorded Ki = 1200

// field: Ki; key: CC1(C)N=C(N)N=C(N)N1c1ccc(Br)cc1 ; value = 1950

Recorded result, CC1N=C(N)N=C(N)N1c1ccc(Cl)cc1 (configuration not stated) , Ki: 127

get_value(item= CC(C)(C)C1N=C(N)N=C(N)N1c1ccc(Cl)cc1 (configuration not stated) , readout=Ki) returns 82700

Lab book: Ki of CC1(C)N=C(N)N=C(N)N1c1ccc(Cl)c(Cl)c1 [CHLORCYCLOGUANIL] noted as 131

What the record says about CCC1N=C(N)N=C(N)N1c1ccc(Cl)cc1 (configuration not stated) : Ki is 189

The measured Ki associated with CCCC1N=C(N)N=C(N)N1c1ccc(C)cc1 (configuration not stated) reads 188

Record CC(C)C1N=C(N)N=C(N)N1c1ccc(Cl)cc1 (configuration not stated) . Reported Ki: 1540

Consider CC1N=C(N)N=C(N)N1c1ccc(Cl)c(Cl)c1 (configuration not stated) . Its measured Ki is 17.8
